Every entry's value here was drawn from ChEMBL document CHEMBL5120778.

TESTED ON: Potassium voltage-gated channel subfamily A member 3 (Homo sapiens)
Sequence (P22001 whole entry): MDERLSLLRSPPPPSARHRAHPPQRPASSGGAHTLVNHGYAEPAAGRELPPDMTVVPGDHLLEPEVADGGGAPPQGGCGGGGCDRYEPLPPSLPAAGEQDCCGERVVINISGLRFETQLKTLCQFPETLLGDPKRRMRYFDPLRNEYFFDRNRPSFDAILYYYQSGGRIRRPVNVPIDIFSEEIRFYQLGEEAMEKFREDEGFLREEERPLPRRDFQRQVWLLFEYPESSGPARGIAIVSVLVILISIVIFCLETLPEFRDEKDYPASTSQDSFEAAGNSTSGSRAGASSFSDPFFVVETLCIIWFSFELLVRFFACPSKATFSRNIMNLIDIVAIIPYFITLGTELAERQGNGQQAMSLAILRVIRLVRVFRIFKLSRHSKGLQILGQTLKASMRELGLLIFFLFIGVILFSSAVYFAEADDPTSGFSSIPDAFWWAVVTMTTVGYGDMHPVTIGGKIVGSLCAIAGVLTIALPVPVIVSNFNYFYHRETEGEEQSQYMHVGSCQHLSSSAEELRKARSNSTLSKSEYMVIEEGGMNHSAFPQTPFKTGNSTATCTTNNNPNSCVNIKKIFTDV
ASSAY METHOD TEXT: Inhibition of human Kv1.3 expressed in HEK293 cells assessed as inhibition of tetracyclin induced current at 30 uM at holding potential of -80 mV by patch clamp method relative to control
Format: cell-based
Property: inhibition; scope: individual compounds

| SMILES TEXT | UNIT OF MEASURE | inhibition |
| --- | --- | --- |
| CC(=O)O[C@@H]1[C@H](C)/C=C/C(C)(C)C(=O)C[C@@H](OC(C)=O)/C(CO)=C/[C@H]2[C@@H](OC(=O)c3ccccc3)[C@H](C)C[C@]12OC(C)=O | % | 97.5 |
| CC(=O)O[C@@H]1C[C@@H](OC(C)=O)C(C)(C)[C@H](O)[C@H]2O[C@@]3(C[C@H](C)[C@H](OC(=O)c4ccccc4)[C@@H]3/C=C/1C)[C@@H](OC(C)=O)[C@H]2C | % | 96.2 |
| CC(=O)O[C@@H]1[C@H](C)/C=C/C(C)(C)C(=O)C[C@@H](OC(=O)c2cccnc2)/C(C)=C/[C@H]2[C@@H](OC(=O)c3ccccc3)[C@H](C)C[C@]12OC(C)=O | % | 95.3 |
| Fc1ccc([C@@H]2CCNC[C@H]2COc2ccc3c(c2)OCO3)cc1 | % | 48.1 |
| CC(=O)O[C@@H]1C[C@@H](OC(C)=O)C(C)(C)[C@@H](O)[C@H](O)[C@H](C)[C@H](OC(C)=O)[C@@]2(O)C[C@H](C)[C@H](OC(=O)c3ccccc3)[C@@H]2/C=C/1C | % | 95.7 |
| CC(=O)O[C@@H]1[C@H](C)[C@@H](C=C(C)C)C(=O)C[C@@H](OC(=O)c2cccnc2)/C(C)=C/[C@H]2[C@@H](OC(=O)c3ccccc3)[C@H](C)C[C@]12OC(C)=O | % | 98.7 |
| CC(=O)O[C@@H]1C[C@@H](O)/C(C)=C/[C@H]2[C@@H](OC(=O)c3ccccc3)[C@@H](C)C[C@]2(OC(C)=O)C(=O)/C(C)=C/[C@H](O)C1(C)C | % | 84.4 |
| CC(=O)O[C@]12C[C@@H](C)[C@H](OC(=O)c3ccccc3)[C@@H]1/C=C(\C)[C@H](O)CC(=O)C(C)(C)/C=C/[C@@H](C)[C@H]2O | % | 93.9 |
| CC(=O)O[C@@H]1C[C@@H](OC(C)=O)C(C)(C)/C=C/[C@H](C)[C@@H](O)[C@@]2(OC(C)=O)C[C@@H](C)[C@H](OC(=O)c3ccccc3)[C@@H]2/C=C/1C | % | 97.4 |
| CC(=O)O[C@@H]1[C@@H](C)/C=C/C(C)(C)[C@H](OC(C)=O)C[C@@H](OC(C)=O)/C(C)=C/[C@H]2[C@@H](OC(=O)c3ccccc3)[C@@H](C)C[C@]12OC(C)=O | % | 90 |
| CC(=O)O[C@@H]1C[C@@H](O)/C(C)=C/[C@H]2[C@@H](OC(=O)c3ccccc3)[C@H](C)C[C@]2(OC(C)=O)C(=O)/C(C)=C/[C@H](O)C1(C)C | % | 85.6 |
